# Test target: X-box-binding protein 1 (Homo sapiens)
# Assay details: ATG_Xbp1_CIS: Attagene CIS-FACTORIAL HepG2 Assay for human X-box Binding Protein 1 (XBP1) (AID 2282972)
# Experimental parameters: HepG2 XBP1 cis-element reporter, Attagene multiplex; actives raise or lower the signal
# Procedure: ATG_CIS is a cell-based, multiplexed-readout assay that uses HepG2, a human liver cell line, with measurements taken at 24 hours after chemical dosing in a 24-well plate.ATG_Xbp1_CIS is one of 52 assay component(s) measured or calculated from the ATG_CIS assay. […] This assay endpoint, ATG_Xbp1_CIS, was analyzed with bidirectional fitting relative to DMSO as the negative control and baseline of activity. […]
Activity calls are given as the source filed them. How the source made its calls: active means hit-call score of the fitted dose curve at least 0.9, where 1 is the maximum; inactive means score below 0.9.
The reply should be one of these categories: active, inactive

Example results:
molecular_string=O=C(O)Cc1c[nH]c2ccccc12 group_label=inactive
molecular_string=CC(C)=CCOC(=O)c1ccccc1 group_label=inactive
molecular_string=CNC(=C[N+](=O)[O-])NCCSCc1csc(CN(C)C)n1 group_label=inactive

-- ask For "c1cc[c]([Bi]([c]2ccccc2)[c]2ccccc2)cc1" , which call appears in the assay record?
-- reply inactive

-- ask For "C[C@H]1C[C@H]2[C@@H]3CCC4=CC(=O)C=C[C@]4(C)[C@@]3(F)[C@@H](O)C[C@]2(C)[C@@]1(O)C(=O)CO" , which call appears in the assay record?
-- reply active

-- ask For "O=C(O)c1nc(Cl)c(Cl)c(Cl)c1Cl" , which call appears in the assay record?
-- reply inactive

---

Here the recorded AC50 is given for each entry.
# Tested on: Brachyury (BRA) Protein Expression, TBXT (gene 6862)
# Assay details: CCTE_Deisenroth_DEVTOX-GLR_Endo_BRA: CCTE's DevTox GLR-Endo Assay Evaluation of Brachyury (BRA) Protein Expression, Deisenroth Lab (AID 2284417)
Active and inactive are the calls of the source. How the source made its calls: active means hit-call score of the fitted dose curve at least 0.9, where 1 is the maximum; inactive means score below 0.9.

molecular_string=O=C1Cc2cc(CCN3CCN(c4nsc5ccccc45)CC3)c(Cl)cc2N1 endpoint_value="4.78 µM (active)"
molecular_string=Cc1ccc(NC(=O)c2ccc(CN3CCN(C)CC3)cc2)cc1Nc1nccc(-c2cccnc2)n1 endpoint_value="22.7 µM (active)"
molecular_string=COc1cc2c(Nc3ccc(Br)cc3F)ncnc2cc1OCC1CCN(C)CC1 endpoint_value="6.72 µM (active)"
molecular_string=O=C(c1ccc(F)cc1)C1CCN(CCn2c(=O)[nH]c3ccccc3c2=O)CC1 endpoint_value="70 µM (active)"

-- ask Return AC50 measured with Brachyury (BRA) Protein Expression, TBXT (gene 6862) given this compound: "CCCCCN=C(N)N/N=C/c1c[nH]c2ccc(OC)cc12"
-- reply 143 µM (active)

---

# Test target: Cellular tumor antigen p53 (Homo sapiens) (UniProt P04637)
# Sequence (P04637 whole entry, looked up): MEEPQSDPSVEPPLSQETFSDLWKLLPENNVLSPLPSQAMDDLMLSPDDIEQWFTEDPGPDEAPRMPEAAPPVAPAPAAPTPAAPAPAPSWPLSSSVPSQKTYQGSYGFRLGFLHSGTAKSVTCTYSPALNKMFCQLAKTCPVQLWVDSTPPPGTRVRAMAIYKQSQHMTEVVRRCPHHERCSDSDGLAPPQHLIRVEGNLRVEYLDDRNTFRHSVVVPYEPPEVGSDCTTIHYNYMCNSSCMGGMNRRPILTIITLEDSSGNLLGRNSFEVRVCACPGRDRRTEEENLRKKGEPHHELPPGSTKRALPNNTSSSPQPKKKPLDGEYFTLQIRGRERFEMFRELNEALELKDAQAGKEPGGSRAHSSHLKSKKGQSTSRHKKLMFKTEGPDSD
# Assay details: TOX21_p53_BLA_p2_ratio: Tox21 HCT-116 p53 Agonism Beta-lactamase Assay, Ratio, Phase 2 (AID 2283592)
# Procedure: TOX21_p53_BLA_p2 is a cell-based, single-readout assay that uses HCT116, a human intestinal cell line, […] in a 1536-well plate.TOX21_p53_BLA_p2_ratio is an assay readout measuring reporter gene via receptor activity and designed using inducible reporter (beta lactamase induction) detected with GAL4 b-lactamase reporter gene. […] This assay endpoint, TOX21_p53_BLA_p2_ratio, was analyzed in the positive analysis fitting direction relative to DMSO as the negative control and baseline of activity. […]
Inconclusive results are not listed. Active and inactive are the calls of the source. Rule for the calls: active = hit-call score of the fitted dose curve at least 0.9, where 1 is the maximum; inconclusive = response in the unintended direction; inactive = score below 0.9.
The reply should be one of these categories: active, inactive

molecule=CCC(C)(C)OC(=O)N[C@@H](Cc1c[nH]c2ccccc12)C(=O)N[C@@H](CCSC)C(=O)N[C@@H](CC(=O)O)C(=O)N[C@@H](Cc1ccccc1)C(N)=O group_label=inactive

-- ask For "C=C1CC[C@H](O)C/C1=C/C=C1\CCC[C@]2(C)[C@@H]([C@H](C)CCCC(C)C)CC[C@@H]12" , which call appears in the assay record?
-- reply inactive

---

# Assay details: BSK_3C_uPAR: BioMAP Diversity Plus: 3C Assay for Urokinase-type plasminogen activator receptor (uPAR) Biomarker Activity (AID 2282998)
# Experimental parameters: BioMAP 3C HUVEC, uPAR biomarker ELISA; actives raise or lower the signal
Active and inactive are the calls of the source. The calls were made as follows: active = hit-call score of the fitted dose curve at least 0.9, where 1 is the maximum; inactive = score below 0.9.
The reply should be one of these categories: Yes = active, No = inactive

Example results:
compound="CC(C)CC(=O)CC(C)CC(C)C (centres undefined)" group_label=Yes
compound="CCCCCCCCCC/C=C/C1CC(=O)OC1=O (centres undefined)" group_label=No
compound=Cc1cc(-n2nc3ccc(Cl)cc3n2)c(O)c(C(C)(C)C)c1 group_label=No

-- ask For "COc1ccccc1Oc1c(NS(=O)(=O)c2ccc(C(C)(C)C)cc2)nc(-c2ncccn2)nc1OCCO" , which call appears in the assay record?
-- reply No

-- ask For CCCCCCC(O)CCCCCCCCCCC(=O)OC (centres undefined) , which call appears in the assay record?
-- reply No

-- ask For "COC(=O)/C=C\C(=O)OC" , which call appears in the assay record?
-- reply No

-- ask For CC[N+](CC)(CC(=O)Nc1c(C)cccc1C)Cc1ccccc1 (tested in a mixture with another compound) , which call appears in the assay record?
-- reply No

-- ask For CC(C)C1OCCN1CCOC(=O)NCCCCCCNC(=O)OCCN1CCOC1C(C)C (centres undefined) , which call appears in the assay record?
-- reply No

-- ask For "COc1cc(CNC(=O)CCCC/C=C/C(C)C)ccc1O" , which call appears in the assay record?
-- reply No

-- ask For "CCC(C)=NO" , which call appears in the assay record?
-- reply No

-- ask For "CCC[Si](OC(C)=O)(OC(C)=O)OC(C)=O" , which call appears in the assay record?
-- reply No

-- ask For "O=C(C(=O)c1ccccc1)c1ccccc1" , which call appears in the assay record?
-- reply No

-- ask For "Cc1cccnc1" , which call appears in the assay record?
-- reply No

-- ask For "CN(C)Cc1cc(C(C)(C)C)c(O)c(C(C)(C)C)c1" , which call appears in the assay record?
-- reply No

---

# Assay details: TOX21_p53_BLA_p4_viability: Viability Assessment in the Tox21 HCT-116 p53 Agonism Beta-lactamase Assay, Phase 4 (AID 2283597);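 further: hits lower the luminescence signal meaning cytotoxicity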
Records with an inconclusive call do not appear. Calls of active or inactive are those of the source. How the source made its calls: active means hit-call score of the fitted dose curve at least 0.9, where 1 is the maximum; inconclusive means response in the unintended direction; inactive means score below 0.9.
The reply should be one of these categories: active, inactive

molecular_string=COc1ccc2c(=O)c(C)c(-c3ccccc3)oc2c1CN(C)C group_label=inactive
molecular_string=Cc1ncc(C[n+]2csc(CCOP(=O)(O)OP(=O)(O)O)c2C)c(N)n1 group_label=inactive
molecular_string=C=C[C@]1(C)C[C@@H](OC(=O)CSCCN(CC)CC)[C@]2(C)[C@H](C)CC[C@]3(CCC(=O)[C@H]32)[C@@H](C)[C@@H]1O group_label=inactive
molecular_string=Cc1cccc2cccnc12 group_label=inactive
molecular_string=O=S(O)CO group_label=inactive
molecular_string=O=c1[nH]c(=O)n([C@H]2C[C@H](O)[C@@H](CO)O2)cc1Br group_label=inactive
molecular_string=O=C(c1ccccc1)c1cccc(O)c1 group_label=inactive
molecular_string=O=[N+]([O-])c1ccc(F)cc1F group_label=inactive
molecular_string=O=C(N/N=C/c1ccccc1O)c1ccncc1 group_label=active
molecular_string=Nc1ccc(C(=O)Oc2ccccc2)c(O)c1 group_label=inactive

Field: next compound
-- ask For "O=C(O)CNCC(=O)O" , which call appears in the assay record?
-- reply inactive

---

# Test target: Cellular tumor antigen p53 (Homo sapiens)
# Assay details: TOX21_p53_BLA_p3_ratio: Tox21 HCT-116 p53 Agonism Beta-lactamase Assay, Ratio, Phase 3 (AID 2283596)
# Experimental: TOX21_p53_BLA_p3 is a cell-based, single-readout assay that uses HCT116, a human intestinal cell line, […] in a 1536-well plate.TOX21_p53_BLA_p3_ratio is an assay readout measuring reporter gene via receptor activity and designed using inducible reporter (beta lactamase induction) detected with GAL4 b-lactamase reporter gene. […] This assay endpoint, TOX21_p53_BLA_p3_ratio, was analyzed in the positive analysis fitting direction relative to DMSO as the negative control and baseline of activity. […]
Records with an inconclusive call do not appear. The source made the active and inactive calls. Rule for the calls: active = hit-call score of the fitted dose curve at least 0.9, where 1 is the maximum; inconclusive = response in the unintended direction; inactive = score below 0.9.
The reply should be one of these categories: active, inactive

Example results:
compound="COC(=O)C1=C(C)NC(C)=C(C(=O)OCCCN2CCC(c3ccccc3)(c3ccccc3)CC2)C1c1cccc([N+](=O)[O-])c1 (configuration not stated)" group_label=active
compound=C[C@@H](O[C@H]1OCCN(Cc2n[nH]c(=O)[nH]2)[C@H]1c1ccc(F)cc1)c1cc(C(F)(F)F)cc(C(F)(F)F)c1 group_label=inactive
compound=CNCCCC1c2ccccc2C=Cc2ccccc21 group_label=inactive
compound="CC(O)C(CO)C(C)O (configuration not stated)" group_label=inactive
compound=CC(=O)C=Cc1ccco1 group_label=inactive
compound="COC(=O)C1=C(C)NC(C)=C(C(=O)OCCN2CCN(C(c3ccccc3)c3ccccc3)CC2)C1c1cccc([N+](=O)[O-])c1 (configuration not stated)" group_label=inactive
compound=O=Cc1c(Cl)cccc1Cl group_label=inactive
compound="CC(CCl)OC(C)CCl (configuration not stated)" group_label=inactive
compound=O=C(Nc1ccc(Br)cc1)c1cc(Br)c(Br)s1 group_label=active
compound=CO[C@H]1/C=C/O[C@@]2(C)Oc3c(C)c(O)c4c(O)c(cc(O)c4c3C2=O)NC(=O)/C(C)=C\C=C\[C@H](C)[C@H](O)[C@@H](C)[C@@H](O)[C@@H](C)[C@H](OC(C)=O)[C@@H]1C group_label=inactive

-- ask For "COC(=O)[C@H]1[C@H]2C[C@H]3c4[nH]c5ccccc5c4CCN3C[C@H]2CC[C@@H]1O" , which call appears in the assay record?
-- reply inactive

-- ask For "O=C1c2ccccc2C(=O)c2cc(Cl)ccc21" , which call appears in the assay record?
-- reply inactive

-- ask For "CC(=C(CCO)SSC(CCO)=C(C)N(C=O)Cc1cnc(C)nc1N)N(C=O)Cc1cnc(C)nc1N" , which call appears in the assay record?
-- reply inactive
